- assay_notes: in vivo
- Design: species or system cynomolgus monkeys
- stated_conditions: both sexes, cynomolgus monkey, iv, 10 nmol/kg
Starred links: 1 amine or outer side, 2 acyl side, 3 side chain; linkers in the order of their positions; H or OH if unused. Non-standard residues stand in square brackets, D forms with d. Groups on a side chain read outwards from the residue. *: point of attachment. C18 diacid = O=C(O)CCCCCCCCCCCCCCCCC(=O)*; αMePhe(2-F) = C[C@](N)(Cc1ccccc1F)C(=O)O; γGlu = O=C(O)[C@H](CCC(=O)[*:2])N[*:1]; αMe4Pal = C[C@](N)(Cc1ccncc1)C(=O)O; αMeY = C[C@](N)(Cc1ccc(O)cc1)C(=O)O; 4Pal = N[C@@H](Cc1ccncc1)C(=O)O; αMeL = CC(C)C[C@](C)(N)C(=O)O; αMeS = C[C@](N)(CO)C(=O)O; Orn = NCCC[C@H](N)C(=O)O; AEEA = NCCOCCOCC(=O)O; Aib = CC(C)(N)C(=O)O
readout: half-life (h)

[[record]]
substance = "H-Y[Aib]QGT[αMePhe(2-F)]TSD[4Pal][αMeS]ILLD[Orn]K([γGlu-γGlu-C18 diacid])AQ[Aib][Orn]FI[dE]YLIEGGPSSGEPPPSGTGE-NH2 [Example 548]"
readout = "half-life"
endpoint_value = 53.2

[[record]]
substance = "H-Y[Aib]QGTFTSD[4Pal]SQ[αMeL]LD[Orn]K([γGlu-γGlu-C18 diacid])AQ[αMe4Pal]AFIE[αMeY]LIEGGPSSGEPPPSGSEE-NH2 [Example 1027]"
readout = "half-life"
endpoint_value = 76.4

[[record]]
substance = "H-Y[Aib]QGTFTSD[4Pal]SQ[αMeL]LDKK([γGlu-γGlu-C18 diacid])AQ[αMe4Pal]AFIEYLIAGGPSSGAPPPSGE-NH2 [Example 883]"
readout = "half-life"
endpoint_value = 62.8

[[record]]
substance = "H-Y[Aib]QGT[αMePhe(2-F)]TSD[4Pal][αMeS]I[αMeL]LD[Orn]K([AEEA-γGlu-C18 diacid])AQ[αMe4Pal]EFI[dE][αMeY]LIEGGPSSGAPPPSGGGE-NH2 [Example 741]"
readout = "half-life"
endpoint_value = 32.1

[[record]]
substance = "H-Y[Aib]QGT[αMePhe(2-F)]TSD[4Pal][αMeS]I[αMeL]LD[Orn]K([AEEA-γGlu-C18 diacid])AQ[αMe4Pal]EFI[dE][αMeY]LIEGGPSSGAPPPSGSE-NH2 [Example 712]"
readout = "half-life"
endpoint_value = 54

[[record]]
substance = "H-Y[Aib]QGT[αMePhe(2-F)]TSD[4Pal][αMeS]I[αMeL]LD[Orn]K([AEEA-γGlu-C18 diacid])AQ[αMe4Pal]EFI[dE][αMeY]LVEGGPSSGAPPPSGS-NH2 [Example 694]"
readout = "half-life"
endpoint_value = 50.7

[[record]]
substance = "H-Y[Aib]QGT[αMePhe(2-F)]TSD[4Pal]SI[αMeL]LD[Orn]K([γGlu-γGlu-C18 diacid])AQ[αMe4Pal][Orn]FI[dE][αMeY]LIEGGPSSGEPPPETE-NH2 [Example 686]"
readout = "half-life"
endpoint_value = 41.5

[[record]]
substance = "H-Y[Aib]QGT[αMePhe(2-F)]TSD[4Pal]SILLDKK([γGlu-γGlu-C18 diacid])AQ[Aib]AFIEYLEEGGPSSGAPPPSGTGE-NH2 [Example 510]"
readout = "half-life"
endpoint_value = 55.9


###

- target_under_test: hGIPR (Homo sapiens)
- Sequence (P48546 22-466): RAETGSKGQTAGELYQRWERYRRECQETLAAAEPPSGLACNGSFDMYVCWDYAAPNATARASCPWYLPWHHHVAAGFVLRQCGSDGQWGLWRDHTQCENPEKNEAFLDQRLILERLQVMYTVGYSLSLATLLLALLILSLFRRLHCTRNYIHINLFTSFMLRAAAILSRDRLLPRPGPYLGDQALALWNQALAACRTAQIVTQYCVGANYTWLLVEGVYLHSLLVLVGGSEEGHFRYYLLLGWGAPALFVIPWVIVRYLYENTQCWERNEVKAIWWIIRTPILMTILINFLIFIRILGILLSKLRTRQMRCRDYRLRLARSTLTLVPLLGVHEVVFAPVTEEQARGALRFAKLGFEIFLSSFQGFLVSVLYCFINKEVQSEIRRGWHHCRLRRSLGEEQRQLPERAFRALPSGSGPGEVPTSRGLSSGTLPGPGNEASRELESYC
- assay_notes: Functional cAMP activity in the presence of 1% HSA
- Assay type: cell-based
- stated_conditions: read-out: cAMP Rel EC50, hGIPR
Starred links: 1 amine or outer side, 2 acyl side, 3 side chain; linkers in the order of their positions; H or OH if unused. Non-standard residues stand in square brackets, D forms with d. Groups on a side chain read outwards from the residue. *: point of attachment. C18 diacid = O=C(O)CCCCCCCCCCCCCCCCC(=O)*; αMePhe(2-F) = C[C@](N)(Cc1ccccc1F)C(=O)O; γGlu = O=C(O)[C@H](CCC(=O)[*:2])N[*:1]; αMe4Pal = C[C@](N)(Cc1ccncc1)C(=O)O; αMeY = C[C@](N)(Cc1ccc(O)cc1)C(=O)O; 4Pal = N[C@@H](Cc1ccncc1)C(=O)O; αMeL = CC(C)C[C@](C)(N)C(=O)O; αMeS = C[C@](N)(CO)C(=O)O; Orn = NCCC[C@H](N)C(=O)O; AEEA = NCCOCCOCC(=O)O; Aib = CC(C)(N)C(=O)O
readout: EC50

[[record]]
substance = "H-Y[Aib]QGTFTSD[4Pal]S[Orn][αMeL]LD[Orn]K([γGlu-γGlu-C18 diacid])AQ[αMe4Pal]AFIEYLIAGGPSSGEPPPSGTEE-NH2 [Example 985]"
endpoint_value = "24 nM"

[[record]]
substance = "H-Y[Aib]QGT[αMePhe(2-F)]TSD[4Pal][αMeS]I[αMeL]LD[Orn]K([AEEA-γGlu-C18 diacid])AQ[αMe4Pal]EFI[dE][αMeY]LIEGGPSSGEPPPSGTGE-NH2 [Example 711]"
endpoint_value = "0.786 nM"

[[record]]
substance = "H-Y[Aib]QGTFTSDFSK[αMeL]LDKK([AEEA-γGlu-C18 diacid])AQ[Aib]AFIEYLIE[Aib]GESSGAPPPSGS-NH2 [Example 216]"
endpoint_value = "12 nM"

[[record]]
substance = "H-Y[Aib]QGT[αMePhe(2-F)]TSD[4Pal]SILLD[Orn]K([γGlu-γGlu-C18 diacid])AQ[Aib][Orn]FIEYLQEGGPSSGAPPPSGTEE-NH2 [Example 582]"
endpoint_value = "10.8 nM"

[[record]]
substance = "H-Y[Aib]QGTFTSDFS[Orn][αMeL]LDKK([AEEA-γGlu-C18 diacid])AQ[Aib]AFIEWLLEGGHSSGAPPPSGT-NH2 [Example 171]"
endpoint_value = "27.1 nM"


###

- target_under_test: human GcgR (Homo sapiens)
- Sequence (P47871 26-477): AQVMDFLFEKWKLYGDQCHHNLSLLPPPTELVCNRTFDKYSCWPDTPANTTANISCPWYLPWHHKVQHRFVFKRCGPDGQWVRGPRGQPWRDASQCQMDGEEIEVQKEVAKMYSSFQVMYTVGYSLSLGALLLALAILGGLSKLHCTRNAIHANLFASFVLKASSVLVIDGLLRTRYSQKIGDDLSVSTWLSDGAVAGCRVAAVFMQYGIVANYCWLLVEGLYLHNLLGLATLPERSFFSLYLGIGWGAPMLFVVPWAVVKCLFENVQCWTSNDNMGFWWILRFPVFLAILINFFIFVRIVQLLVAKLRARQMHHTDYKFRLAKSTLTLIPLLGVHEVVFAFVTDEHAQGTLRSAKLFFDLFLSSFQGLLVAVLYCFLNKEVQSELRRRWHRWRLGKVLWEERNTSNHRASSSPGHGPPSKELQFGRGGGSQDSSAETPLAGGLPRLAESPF
- assay_notes: Functional cAMP activity in the presence of 1% HSA
- Format: cell-based
- stated_conditions: read-out: cAMP Rel EC50, hGcgR
pEC50: −log10 of the molar value. Starred links: 1 amine or outer side, 2 acyl side, 3 side chain; linkers in the order of their positions; H or OH if unused. Non-standard residues stand in square brackets, D forms with d. Groups on a side chain read outwards from the residue. *: point of attachment. C20 diacid = O=C(O)CCCCCCCCCCCCCCCCCCC(=O)*; C18 diacid = O=C(O)CCCCCCCCCCCCCCCCC(=O)*; αMePhe(2-F) = C[C@](N)(Cc1ccccc1F)C(=O)O; γGlu = O=C(O)[C@H](CCC(=O)[*:2])N[*:1]; αMe4Pal = C[C@](N)(Cc1ccncc1)C(=O)O; αMeY = C[C@](N)(Cc1ccc(O)cc1)C(=O)O; 4Pal = N[C@@H](Cc1ccncc1)C(=O)O; αMeL = CC(C)C[C@](C)(N)C(=O)O; αMeS = C[C@](N)(CO)C(=O)O; Orn = NCCC[C@H](N)C(=O)O; AEEA = NCCOCCOCC(=O)O; Aib = CC(C)(N)C(=O)O
Binary classification by pEC50, with 6 as an inclusive lower bound for Yes; all other cases are No.

[[record]]
substance = "H-Y[Aib]QGT[αMePhe(2-F)]TSD[4Pal][αMeS]I[αMeL]LD[Orn]K([AEEA-γGlu-C18 diacid])AA[Aib]EFI[dE][αMeY]LIEGGPSSGAPPPSG[dE]-NH2 [Example 721]"
assigned_label = "Yes"

[[record]]
substance = "H-Y[Aib]QGTFTSD[4Pal]SR[αMeL]LDKK([AEEA-γGlu-C18 diacid])AQ[Aib]AFIEYLLAGGPSSGAPPPSGE-NH2 [Example 113]"
assigned_label = "No"

[[record]]
substance = "H-Y[Aib]QGTFTSDFSK[αMeL]LDKK([AEEA-γGlu-C18 diacid])AQ[Aib]AFIEYLLAGGPSSGEPPPSGE-NH2 [Example 23]"
assigned_label = "Yes"

[[record]]
substance = "H-Y[Aib]QGT[αMePhe(2-F)]TSDYSKLLDKIAQK([AEEA-γGlu-C20 diacid])[Orn]FIEWLIEGGPSSGEPPPSEG-NH2 [Example 310]"
assigned_label = "No"

[[record]]
substance = "H-Y[Aib]QGT[αMePhe(2-F)]TSD[4Pal]SI[αMeL]LD[Orn]K([γGlu-γGlu-C18 diacid])AQ[αMe4Pal]EFI[dE][αMeY]LLEGGPSSGAPPPSGE-NH2 [Example 617]"
assigned_label = "Yes"

